Kindly supply the reported z-score values for the records listed here.
assay: basal 3T3-L1 adipocyte mitochondrial potential changes, profiling panel, cell-based, JC-1 fluorescence, 3T3-L1 adipocytes, 24 h, 100 nL compound (AID 1168); conditions: JC-1 mitochondrial fluorescence, higher = more signal, called active from +8 up or from −8 down; also: test concentration not given here
Respond with the number and no other words.

Exercise: Can you look up the measured z-score of CC(c1ccccc1)C(O)C1C=CC2C(=O)N(c3ccccc3)C(=O)C2N1Nc1ccc([N+](=O)[O-])cc1 (stereo not drawn) for me?
Solution: -1

Exercise: # repeat for `CN(C)C(=O)[C@@]1(Cc2ccccc2CN=[N+]=[N-])N=C(c2ccc(OCCCO)cc2)O[C@H]1c1ccccc1CN=[N+]=[N-]`
Solution: -1.34

Exercise: # repeat for COc1cc(OC)c(C(O)C2C=CC3C(=O)N(C)C(=O)C3N2NC(=O)OC(C)(C)C)cc1Br (stereo not drawn)
Solution: -0.0401

Exercise: # repeat for `C=C(COC)/C(=C/C[C@H](OC(=O)c1ccncc1)c1ccccc1OCCO)c1cnc2ccccc2c1`
Solution: -0.296

Exercise: # repeat for CCC(CC)C(O)C1C=CC2C(=O)N(c3ccccc3)C(=O)C2N1Nc1ccc(C(C)C)cc1 (stereo not drawn)
Solution: 0.261

Exercise: # repeat for `[N-]=[N+]=NCc1ccccc1C[C@]1(C(N)=O)N=C(c2ccc(OCCCO)cc2)O[C@H]1c1ccccc1`
Solution: 0.587

Exercise: # repeat for `O=C1N(Cc2ccccc2)c2ccccc2[C@@H]2OC(c3ccc(OCCCO)cc3)=N[C@]12Cc1ccccc1`
Solution: 0.983

Exercise: # repeat for CN1C(=O)C2C=CC(C(O)C#Cc3ccccc3)N(Nc3ccccc3)C2C1=O (stereo not drawn)
Solution: 0.39

----------
molecular target: Pro-neuregulin-1, membrane-bound isoform (Homo sapiens) (UniProt Q02297); assay: NRG1 binders on small-molecule microarrays, primary screen, psychiatric disease protein project, biochemical, small-molecule microarray, fluorescence 635/667 (AID 1075); settings: NRG1 binding, 635 nm fluorescence, higher = more signal;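 also: score combines 667 nm spot fluorescence with signal to noise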
Sequence (Q02297 whole entry, looked up, canonical isoform): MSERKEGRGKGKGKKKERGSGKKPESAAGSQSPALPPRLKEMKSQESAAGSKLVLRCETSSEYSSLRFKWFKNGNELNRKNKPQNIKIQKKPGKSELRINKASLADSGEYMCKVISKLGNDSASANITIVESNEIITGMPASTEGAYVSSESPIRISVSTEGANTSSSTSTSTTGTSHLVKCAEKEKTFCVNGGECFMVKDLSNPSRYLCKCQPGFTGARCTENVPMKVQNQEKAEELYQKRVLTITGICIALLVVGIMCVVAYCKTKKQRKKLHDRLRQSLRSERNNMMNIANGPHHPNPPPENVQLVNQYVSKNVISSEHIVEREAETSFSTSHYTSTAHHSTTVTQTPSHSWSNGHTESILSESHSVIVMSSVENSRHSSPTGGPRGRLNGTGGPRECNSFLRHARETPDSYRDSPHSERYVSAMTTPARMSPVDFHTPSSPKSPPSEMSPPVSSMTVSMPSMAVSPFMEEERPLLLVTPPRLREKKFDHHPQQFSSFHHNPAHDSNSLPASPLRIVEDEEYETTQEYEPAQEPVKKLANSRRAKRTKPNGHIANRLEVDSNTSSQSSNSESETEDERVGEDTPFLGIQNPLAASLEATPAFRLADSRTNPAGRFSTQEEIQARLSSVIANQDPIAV
experimental.endpoint: composite z-score

Exercise: Can you look up the measured composite z-score of COC1OC[C@]2(C)[C@H]3C4=C(CN2C(=O)OC(C)(C)C)[C@H](C)C(CO)C(CO)C4CC[C@@H]13 (some centres undefined) for me?
Solution: 1.82

Exercise: # repeat for `C=C(COC)/C(=C/C[C@H](OC(=O)c1ccncc1)c1ccccc1OCCO)c1cnc2ccccc2c1`
Solution: 1.47

Exercise: # repeat for `COC(=O)[C@@]1(Cc2ccc(F)cc2)[C@H]2c3cc(C(=O)N(C)C)n(Cc4cc(F)cc5c4OCOC5)c3C[C@H]2CN1C(=O)c1ccccc1`
Solution: 1.81

Exercise: # repeat for `CC(C)[Si](C#C[Si](C(C)C)(C(C)C)C(C)C)(O[C@H](C)c1cn([C@H](CO)Cc2ccccc2)nn1)C(C)C`
Solution: 0.183

Exercise: # repeat for `CC(=O)NCCCC[C@@H]1NC(=O)[C@H]2C[C@@H](C(=O)NCCCC[N+](C)(C)C)[C@@H](c3cccc(OCCO)c3)N2C1=O`
Solution: 0.4

Exercise: # repeat for `COCCCNC(=O)[C@@]1(Cc2ccccc2CN=[N+]=[N-])N=C(c2ccc(OCCCO)cc2)O[C@H]1c1ccccc1`
Solution: 1.72

Exercise: # repeat for `C=CCOC(=O)[C@H]1[C@@H]2C(=O)O[C@@H](c3ccccc3)[C@@H](c3ccccc3)N2[C@@H](c2ccc(OCCOC(=O)[C@@H]3C[C@@H]4C(=O)N[C@@H](CCCCNC(C)=O)C(=O)N4[C@@H]3c3ccc(O)cc3)cc2)[C@]12C(=O)Nc1ccc(I)cc12`
Solution: 1.23

Exercise: # repeat for `COCCOC(=O)N1C(=O)[C@@]2(c3cc(C#Cc4ccc(OC)cc4)ccc31)[C@H](c1ccc(O)cc1)N1[C@H](c3ccccc3)[C@H](c3ccccc3)OC(=O)[C@H]1[C@@H]2C(=O)N1CCCCCCC1`
Solution: 0.326

Exercise: # repeat for O=C1OCC=C[C@H]2OC34C=CCN(Cc5ccccc5)C(=O)[C@H]3N(CCCCCCO)C(=O)[C@@H]4[C@@H]12 (some centres undefined)
Solution: 0.273

Exercise: # repeat for `CCCC[C@@H]1C[C@H]1[C@@H](NC(=O)c1ccccc1)c1ccc(C(F)(F)F)cc1`
Solution: -0.612

Exercise: # repeat for C=C(C)C1CCC(C(O)C2C=CC3C(=O)N(C)C(=O)C3N2N2CCCCC2)CC1 (centres undefined)
Solution: 1.45

Exercise: # repeat for `CC(C)C(=C=CC[C@H](O)c1cccc(OCCO)c1)C[C@H](O)c1cc(Cl)cc(Cl)c1O`
Solution: 0.462

Exercise: # repeat for [N-]=[N+]=Nc1ccccc1[C@@H]1OC(c2ccc(OCCCO)cc2)=N[C@]1(Cc1ccccc1)C(=O)NCC(O)CO (some centres undefined)
Solution: 1.66

Exercise: # repeat for `COc1ccc(NC(=O)O[C@H]2[C@H](OC(=O)Nc3ccccc3)[C@@H](OC(=O)Nc3ccccc3)[C@@H](OC)O[C@@H]2CO)cc1`
Solution: 1.6

----------
assay: inhibitors of hydroxyurea-induced Chk1 phosphorylation, primary screen, imaging, HeLa, phospho-Chk1 antibody, percent positive cells (AID 1186); conditions: hydroxyurea-induced phospho-Chk1 immunofluorescence imaging, higher = more signal
Kindly supply the reported z-score values for the records listed here.
Respond with the number and no other words.

Exercise: Can you look up the measured z-score of `C=CCOC(=O)[C@H]1[C@@H]2C(=O)O[C@@H](c3ccccc3)[C@@H](c3ccccc3)N2[C@@H](c2ccc(OCCOC(=O)[C@@H]3C[C@@H]4C(=O)N5CCC[C@H]5C(=O)N4[C@@H]3c3ccc(O)cc3)cc2)[C@]12C(=O)Nc1ccc(I)cc12` for me?
Solution: 0.651

Exercise: # repeat for `COC(=O)c1nc2oc1CC[C@@H](CO)NC(=O)N(C)Cc1cnnn1C[C@H](Cc1ccccc1)NC2=O`
Solution: -0.517

Exercise: # repeat for C=CCC(OC(C)=O)[C@@H]1[C@@H](N(Cc2cc3ccccc3o2)C(=O)c2ccc(-c3ccccc3)cc2)c2cc(OCCCO)ccc2N1C(=O)c1ccc2ccccc2c1 (some centres not stated)
Solution: 0.347

Exercise: # repeat for `COCCCNC(=O)[C@@]1(Cc2ccccc2N=[N+]=[N-])COC(c2ccc(OCCCO)cc2)=N1`
Solution: -0.0232

Exercise: # repeat for CN1C(=O)C2C=CC(C(O)C#Cc3ccccc3)N(Nc3ccccc3)C2C1=O (configuration not stated)
Solution: -0.0435

Exercise: # repeat for `O=C1C[C@@](C(=O)NCCN2CCOCC2)(c2ccc([N+](=O)[O-])cc2)[C@@H](c2ccc(CO)cc2I)N1C1CCCCC1`
Solution: 0.0213

Exercise: # repeat for NC(=O)N1C(=O)C2C(C1=O)C1C=C(CCCO)C2C(c2cccs2)N1Cc1cccc(OC(F)(F)F)c1 (configuration not stated)
Solution: -0.356

----------
assay: small-molecule binders of probe aNOTCH2, primary screen, biochemical, small-molecule microarray, 635/667 nm fluorescence (AID 1121); conditions: higher = more signal;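 also: score merges feature fluorescence read at 667 nm with its signal to noise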
experimental.endpoint: composite z-score
Respond with the number and no other words.

Exercise: Can you look up the measured composite z-score of `CCCNC(=O)[C@@]1(c2ccc([N+](=O)[O-])cc2)CC(=O)N(C2CCCCC2)[C@@H]1c1ccc(CO)cc1` for me?
Solution: -0.0406

Exercise: # repeat for `C[C@]1(C(=O)NC2CC2)c2ccccc2C(=O)N(Cc2ccccc2)[C@H]1c1ccc(CO)cc1`
Solution: -0.105

Exercise: # repeat for `CCOC(=O)C[C@H]1[C@H](OC(=O)c2cc3ccccc3oc2=O)[C@@H](NC(=O)c2ccc(-c3ccccc3)cc2)c2cc(OCCCO)ccc2N1C(=O)c1ccc2ccccc2n1`
Solution: -0.147

----------
experiment: A549 cell viability effects, profiling panel, calcein-AM fluorescence, 48 h, basal (AID 1162); details: higher = more signal; also: test concentration not given here
experimental.endpoint: z-score
Respond with the number and no other words.

Exercise: Can you look up the measured z-score of `COC(=O)c1c2oc(c1C(=O)OC)C(=O)N(Cc1ccccc1)Cc1cn(nn1)C[C@H](Cc1ccccc1)NC(=O)N[C@H](CO)CC2` for me?
Solution: 2.05

Exercise: # repeat for `O=C(NCCCCCNC(=O)/C(Cc1ccccc1)=N/O)OCc1ccccc1`
Solution: 1.54

Exercise: # repeat for C=CC1c2cc(O)c(OC)cc2CCN1Cc1cc2c(cc1Br)OCO2 (stereo unspecified)
Solution: -3.63

Exercise: # repeat for `COc1cc(CO)cc(I)c1O[C@H]1C=C(C(=O)NCCO)C[C@@H](NCc2ccc(F)cc2)[C@@H]1O`
Solution: 0.56

Exercise: # repeat for `C=CC[C@]1(C(=O)NCCN2CCOCC2)N=C(c2ccc(OCCCO)cc2)O[C@H]1c1ccccc1CN=[N+]=[N-]`
Solution: 0.779

Exercise: # repeat for `Cc1ccc(S[C@]2(C(=O)NCC(F)(F)F)CC(=O)N(Cc3ccccc3C(F)(F)F)[C@@H]2c2ccc(CO)cc2I)cc1`
Solution: 1.45

Exercise: # repeat for `C=C[C@@H](COC(C)=O)N(C(=O)OC(C)(C)C)S(=O)(=O)c1ccc(Br)cc1`
Solution: 1.82

Exercise: # repeat for CC(CO)N1C(=O)[C@@H]2[C@H]3C(=O)OCC=C[C@H]3OC23C=CCN(Cc2ccccc2)C(=O)[C@@H]13 (stereo partly specified)
Solution: -0.0849

Exercise: # repeat for CC(CO)N1C(=O)[C@@H]2[C@H]3C(=O)OCC=C[C@H]3OC23C=CCN(CCN2CCOCC2)C(=O)[C@@H]13 (stereo partly specified)
Solution: -0.313

Exercise: # repeat for O=C1OCC=C[C@H]2OC34C=CCN(c5ccc(Cl)cc5)C(=O)[C@H]3N(CCO)C(=O)[C@@H]4[C@@H]12 (stereo partly specified)
Solution: 0.667

Exercise: # repeat for `COC(=O)[C@@]1(Cc2ccc(OC)cc2)[C@H]2c3cc(C(=O)N(C)C)n(C[C@H](O)CO)c3C[C@H]2CN1C(=O)c1ccccc1`
Solution: -0.93

Exercise: # repeat for `CCOC(=O)C1=CC[C@@H](c2cccc(Cl)c2)N(S(=O)(=O)c2ccc(C)cc2)C1`
Solution: -0.236

Exercise: # repeat for COc1cc(OC)c(C(O)C2C=CC3C(=O)N(c4ccccc4)C(=O)C3N2Nc2ccccc2)cc1Br (stereo unspecified)
Solution: 1.84

Exercise: # repeat for `COCCCNC(=O)[C@]1(CCS(=O)(=O)c2ccccc2)N=C(c2ccc(OCCCO)cc2)O[C@@H]1c1ccccc1CN=[N+]=[N-]`
Solution: 1.61

Exercise: # repeat for `COCCCNC(=O)[C@@]1(Cc2ccccc2CN=[N+]=[N-])N=C(c2ccc(OCCCO)cc2)O[C@H]1c1ccccc1`
Solution: -1.15

Exercise: # repeat for `COC(=O)[C@@]1(Cc2ccc(OC)cc2)[C@H]2c3cc(C(=O)N(C)C)n(CCO)c3C[C@H]2CN1C(=O)c1ccccc1`
Solution: -1.58

src = PubChem BioAssay
